# EXPERIMENTAL DETAILS: qHTS for Inhibitors of human tyrosyl-DNA phosphodiesterase 1 (TDP1): qHTS in cells in absence of CPT; further: nearly all actives have a fitted effect of over 55% in size
# COND: DT40 Tdp1-/- hTDP1 cells, no CPT, ATP luminescence, 48 h
Screen size: about 420,000 compounds; about 64,000 (15%) were called active. Another 27% or so got no clear call; they are omitted. The call rests on the fitted dose curve; in most records, active means well fitted inhibition curve with a large enough effect; inconclusive means small, poorly fitted or top-dose-only effect; inactive means flat fitted curve, though single readings scatter. Only a sample is shown.
// allowed return values: active, inactive

Solved entries (count: 4):
CCN(CC(=O)NCc1ccco1)S(=O)(=O)c1ccc(F)cc1 : inactive
COCCn1c(N)c(N(Cc2ccccc2)C(=O)C2CCCCC2)c(=O)[nH]c1=O : inactive
Cc1ccc(Nc2nc(N)nc(CN3CCN(Cc4ccccc4)CC3)n2)cc1Cl : active
COc1ccc(S(=O)(=O)N2CCN(CC(=O)N3CCNC3=O)CC2)cc1OC : inactive

Data request: Identify the outcome logged in this assay for the compound shown: "CC(=O)c1cnc(SCCN2C(=O)c3ccccc3C2=O)nc1C"
Data returned: inactive

Data request: In this assay, the call recorded for C=CCC(NCCCO)c1cccc(OC)c1OC (stereo unspecified) was what?
Data returned: inactive

---

# EXPERIMENTAL DETAILS: qHTS for Inhibitors of human tyrosyl-DNA phosphodiesterase 1 (TDP1): qHTS in cells in absence of CPT; further: nearly all actives have a fitted effect of over 55% in size
# COND: DT40 Tdp1-/- hTDP1 cells, no CPT, ATP luminescence, 48 h
Screen size: about 420,000 compounds; about 64,000 (15%) were called active. Roughly 27% stayed inconclusive and do not appear here. The call rests on the fitted dose curve; in most records, active means well fitted inhibition curve with a large enough effect; inconclusive means small, poorly fitted or top-dose-only effect; inactive means flat fitted curve, though single readings scatter. A selection follows.
// classify into active, inactive

Example results:
O=C(Nc1ccc(S(=O)(=O)Nc2ncccn2)cc1)c1cncc(Br)c1 : inactive
CN1CCN(S(=O)(=O)c2cccc(C(=O)Nc3cccc(S(N)(=O)=O)c3)c2)CC1 : inactive
O=C(NCCc1ccccc1)C(=O)NCC1OCCN1S(=O)(=O)c1cccs1 (stereo unspecified) : inactive

Data request: Recorded call for "COc1ccc2[nH]c3ccc(OC)cc3c2c1" ?
Data returned: inactive

Data request: How was "O=C(Nc1cccc(S(=O)(=O)N2CCCCC2)c1)c1ccc2c(c1)OCO2" classified in this test?
Data returned: active

Data request: Dear colleague, could you share the recorded outcome for "O=C(Nc1cccc(S(=O)(=O)N2CCCC2)c1)c1cncc(Br)c1" when you have a moment?
Data returned: active

Data request: I would be grateful if you could indicate the recorded call for "O=C(Nc1cccc(S(=O)(=O)Nc2ccc(Cl)cc2)c1)c1ccc2c(c1)OCCO2" .
Data returned: active

---

# EXPERIMENTAL DETAILS: qHTS for Inhibitors of human tyrosyl-DNA phosphodiesterase 1 (TDP1): qHTS in cells in absence of CPT; further: nearly all actives have a fitted effect of over 55% in size
# COND: DT40 Tdp1-/- hTDP1 cells, no CPT, ATP luminescence, 48 h
Screen size: about 420,000 compounds; about 64,000 (15%) were called active. Not shown: some 27% with an inconclusive outcome. Calls follow the shape of the dose curve; as a rule, active = well fitted inhibition curve with a large enough effect; inconclusive = small, poorly fitted or top-dose-only effect; inactive = flat fitted curve, though single readings scatter. These entries were drawn from the full list.
Would you mind answering with one of these outcomes? active, inactive

# count of solved cases: 3
O=C(NCCN1C(=O)C2C3C=CC(C3)C2C1=O)Nc1ccccn1 (stereo not drawn) : inactive
O=C(O)CCSc1nnc(-c2ccccc2)n1-c1ccccc1 : inactive
O=C(Nc1ccccc1)C1CCN(C(=O)c2ccc(Br)cc2)CC1 : inactive

Data request: Tell me the assay call for "CCCN(CC1CC1)C(=O)COC(=O)c1ccc(C)cc1O" please.
Data returned: inactive

Data request: Kindly provide the recorded test outcome for the following compound: "CCOC(=O)C1CCN(C(=O)CN2C(=O)c3cccnc3Oc3ccc(C)cc32)CC1"
Data returned: inactive

Data request: Assay outcome for "O=c1[nH]c(SCc2ccccc2)nnc1-c1ccccc1" : what was it?
Data returned: inactive

Data request: I'd appreciate the recorded outcome for "CCc1ccc(NC(=O)Cn2nnc(C(=O)NCc3ccc(OC)cc3)c2N)cc1" from this test.
Data returned: inactive

---

# EXPERIMENTAL DETAILS: qHTS for Inhibitors of human tyrosyl-DNA phosphodiesterase 1 (TDP1): qHTS in cells in absence of CPT; further: nearly all actives have a fitted effect of over 55% in size
# COND: DT40 Tdp1-/- hTDP1 cells, no CPT, ATP luminescence, 48 h
Out of some 420,000 compounds screened, about 64,000 (15%) were called active. Inconclusive results (about 27%) are left out. Calls come from the whole dose curve; as a rule, active = well fitted inhibition curve with a large enough effect; inconclusive = small, poorly fitted or top-dose-only effect; inactive = flat fitted curve, though single readings scatter. A selection follows.
Allowed answers: YES (active), NO (inactive)

COc1ncc2nc(-c3ccc(Cl)cc3)c(=O)n(-c3ccccc3)c2n1 : NO
CCn1cc(C(=O)N(C)Cc2ccccc2)c(=O)c2cc(S(=O)(=O)N3CCCCCC3)ccc21 : NO

Data request: For "CSc1ncccc1C(=O)OCC(=O)N1CCOCC1" , what call appears in the results of this test?
Data returned: NO

Data request: Dear all, I need the recorded test outcome for "COc1ccc(-n2c(C)csc2=S)cc1" , thank you.
Data returned: NO

Data request: Could you kindly confirm the outcome this assay logged for Cc1ccc(CNC(=O)C2CCN(S(=O)(=O)c3ccc4nc5c(c(C(=O)O)c4c3)CC(C)CC5)CC2)cc1 (stereo unspecified) ?
Data returned: NO

Data request: Answer briefly: the call reported for Cc1cc(C)c(C2C3=C(Nc4c2c(C)nn4-c2ccccn2)c2ccccc2C3=O)c(C)c1 (stereo unspecified) in this assay.
Data returned: YES

Data request: Write down the call the test reported for this molecule. Item: "CCn1cc(C(=O)NCc2ccccc2)c(=O)c2cc(S(=O)(=O)N3CCCCC3)ccc21"
Data returned: YES

Data request: How was COc1ccc(C2OCC3(CO2)SC(=O)NC3=O)cc1OC (stereo unspecified) classified in this test?
Data returned: NO

Data request: Please indicate how the test categorized "CCOCCCNC(=O)c1cn(CC)c2ccc(S(=O)(=O)N3CCc4ccccc4C3)cc2c1=O" .
Data returned: YES

Data request: Record lookup: outcome of this test for "CSc1ccc(Cl)c(C(=O)OCC(=O)N2CCNC2=O)c1" ?
Data returned: NO

Data request: Kindly provide the recorded test outcome for the following molecule: "CC(C)c1nccn1S(=O)(=O)c1cc([N+](=O)[O-])ccc1Cl"
Data returned: NO

Data request: In this assay, the call recorded for "CN(Cc1ccccc1)C(=O)c1cn(C)c2ccc(S(=O)(=O)N3CCCCC3)cc2c1=O" was what?
Data returned: NO

Data request: Look up the recorded call for "C[C@H]1CN([C@@H](C)CO)C(=O)Cc2cc(NS(C)(=O)=O)ccc2O[C@@H]1CN(C)CC1CC1" in this test.
Data returned: NO

Data request: Give the logged outcome of this assay for the following molecule: "NS(=O)(=O)c1ccc(Nc2nc(-c3ccccc3)cs2)cc1"
Data returned: NO

Data request: What call does the record list for COc1ccc(C(C#N)Nc2ccccc2C)cc1 (stereo unspecified) ?
Data returned: NO

Data request: // param item: "COc1ccc2c(c1)N(C)/C(=C1/SC(=S)N(NC(C)=O)C1=O)S2" ; yields the recorded call
Data returned: NO

---

# EXPERIMENTAL DETAILS: qHTS for Inhibitors of human tyrosyl-DNA phosphodiesterase 1 (TDP1): qHTS in cells in absence of CPT; further: nearly all actives have a fitted effect of over 55% in size; further: potency means the concentration at half of the fitted maximal effect
# COND: DT40 Tdp1-/- hTDP1 cells, no CPT, ATP luminescence, 48 h
Hit rate of the full screen: of about 420,000 compounds, about 64,000 (15%) were called active. Not shown: some 27% with an inconclusive outcome. These entries were drawn from the full list.
RECORDED ENDPOINT: Potency

COC(=O)C1=C(c2ccccc2)c2ccccc2S(=O)(=O)N1CC(=O)Nc1ccccc1C(F)(F)F : inactive
COCCn1c(SCC(=O)Nc2cc(Cl)ccc2OC)nc2c(c1=O)SC(C)C2 (stereo unspecified) : 20.6 µM (active)
COc1ccccc1CNS(=O)(=O)c1ccc2c(c1)NC(=O)CS2 : inactive
O=C1CSC(c2ccc(Cl)cc2)N1 (stereo unspecified) : inactive

Next item in the queue.
Data request: Report Potency for CC(CC(=O)N1CCN(c2ccccc2)CC1)S(=O)(=O)c1ccc2c(c1)NC(=O)CS2 (stereo unspecified)
Data returned: 20.6 µM (active)

---

# EXPERIMENTAL DETAILS: qHTS for Inhibitors of human tyrosyl-DNA phosphodiesterase 1 (TDP1): qHTS in cells in absence of CPT; further: nearly all actives have a fitted effect of over 55% in size; further: potency means the concentration at half of the fitted maximal effect
# COND: DT40 Tdp1-/- hTDP1 cells, no CPT, ATP luminescence, 48 h
The whole screen tested about 420,000 compounds, of which about 64,000 (15%) were called active. Roughly 27% stayed inconclusive and do not appear here. Not all results are given here.
RECORDED ENDPOINT: Potency

Recorded results for 10 compounds are shown here.
CC(=C/c1ccccc1)/C=N/NC(=O)c1cc(C)oc1C : inactive
Cc1cc(C(=O)N/N=C\C(Br)=C\c2ccccc2)c(C)o1 : 16.4 µM (active)
COc1ccc(C/C(C)=N/NC(=O)c2cc(C)oc2C)cc1 : inactive
Cc1ccccc1NC(=O)Cn1c(=O)n(CC2CCCO2)c(=O)c2ccccc21 (stereo unspecified) : inactive
O=C(O)Cc1csc(NC(=O)CSc2nnnn2-c2ccc(O)cc2)n1 : inactive
O=C(O)c1ccccc1-c1ccccc1C(=O)Nc1cccc2ccccc12 : inactive
CC(C)c1cc(C(=O)O)n[nH]1 : inactive
O=C1[C@@H]2C(Cc3ccc(O)cc3)NC3(C(=O)Nc4ccc(F)cc43)[C@@H]2C(=O)N1c1ccc(F)cc1 (stereo partly specified) : inactive
N#Cc1ccc(CSc2nnc3ccccn23)cc1 : inactive
CSCCC1NC2(C(=O)Nc3ccc(Cl)cc32)[C@@H]2C(=O)N(C3CCCC3)C(=O)[C@H]12 (stereo partly specified) : 20.6 µM (active)

Data request: // Input: "COc1cc(Cl)c(S(=O)(=O)n2cnc(C)c2)cc1Cl" . Output its Potency only.
Data returned: inactive
